biological target: Diazepam Receptor; assay: Diazepam Receptor Binding Assay in vitro (tritiated diazepam, rat fore-brain membranes); settings: membranes from rat fore-brain, 0°-5°, pH=7.5, determined graphically; read-out: IC50, concentration required to inhibit the specific binding of 2 nM of tritiated diazepam by 50%
parameter: IC50 (nM)
One number for each entry, in nM.

| molecule | unit string | IC50 |
| --- | --- | --- |
| CN1C(=O)CN=C(c2ccccc2)c2cc(Cl)ccc21 [diazepam] | nM | 5 |

Qu. Fill in IC50 for record CNC1=Nc2ccc(Cl)cc2C(c2ccccc2)=[N+]([O-])C1 [chlordiazepoxide]
Ans. 400
